- Tgt: UniProtKB O42713
- Sequence (O42713 whole entry): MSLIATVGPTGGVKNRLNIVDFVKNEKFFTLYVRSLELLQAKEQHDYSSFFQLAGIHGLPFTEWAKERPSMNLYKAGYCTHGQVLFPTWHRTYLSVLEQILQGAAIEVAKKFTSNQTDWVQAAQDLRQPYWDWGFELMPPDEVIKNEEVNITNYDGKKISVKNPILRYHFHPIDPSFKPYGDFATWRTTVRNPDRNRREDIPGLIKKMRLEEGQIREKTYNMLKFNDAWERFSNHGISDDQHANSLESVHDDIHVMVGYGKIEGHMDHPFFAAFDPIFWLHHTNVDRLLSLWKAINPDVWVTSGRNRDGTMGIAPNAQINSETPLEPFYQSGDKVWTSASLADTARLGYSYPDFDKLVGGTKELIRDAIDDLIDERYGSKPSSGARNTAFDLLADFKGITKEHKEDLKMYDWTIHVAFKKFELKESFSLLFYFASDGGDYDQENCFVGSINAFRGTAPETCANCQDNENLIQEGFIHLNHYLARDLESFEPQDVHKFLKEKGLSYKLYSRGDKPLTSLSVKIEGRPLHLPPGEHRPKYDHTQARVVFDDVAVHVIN
- Run description: Inhibition of mushroom tyrosinase using L-dopa as substrate assessed as reduction in dopachrome production after 20 mins by spectrophotometry
Where a SMILES comes first, the peptide text is derived from it.
Quantity measured: IC50 (µM)

Study these solved cases before continuing.
[[record]]
molecule = "CC[C@H](C)[C@H](NC(=O)[C@H](C)NC(=O)[C@@H]1CCCN1C(=O)[C@@H](NC(=O)[C@@H](N)Cc1ccccc1)C(C)C)C(=O)N[C@@H](CC(C)C)C(=O)N[C@@H](CS)C(=O)N[C@@H](CO)C(=O)N[C@H](C(=O)N[C@@H](CC(C)C)C(=O)N[C@@H](CCCCN)C(=O)N[C@H](C(=O)N[C@@H](CS)C(=O)O)[C@@H](C)O)[C@@H](C)CC (H-FVPAILCSILKTC-OH)"
quantity_measured = "IC50"
data_value = 147

[[record]]
molecule = "C[C@H](NC(=O)[C@H](CO)NC(=O)[C@H](CS)NC(=O)[C@H](CO)NC(=O)[C@@H](NC(=O)[C@H](CCCNC(=N)N)NC(=O)[C@@H](N)Cc1ccccc1)[C@@H](C)O)C(=O)N[C@@H](CS)C(=O)O (H-FRTSCSAC-OH)"
quantity_measured = "IC50"
data_value = 78

[[record]]
molecule = "CC[C@H](C)[C@H](NC(=O)[C@H](CS)NC(=O)[C@@H](NC(=O)[C@@H](NC(=O)[C@H](CCCNC(=N)N)NC(=O)[C@H](C)NC(=O)[C@@H](NC(=O)[C@H](CC(N)=O)NC(=O)[C@@H](NC(=O)[C@H](CCCNC(=N)N)NC(=O)[C@H](Cc1ccccc1)NC(=O)[C@H](CCCNC(=N)N)NC(=O)[C@@H](NC(=O)[C@@H](N)CS)C(C)C)[C@@H](C)O)[C@@H](C)O)[C@@H](C)O)C(C)C)C(=O)N[C@@H](C)C(=O)N1CCC[C@H]1C(=O)O (H-CVRFRTNTARTVCIAP-OH)"
quantity_measured = "IC50"
data_value = 166

[[record]]
molecule = "CC[C@H](C)[C@H](NC(=O)[C@H](CS)NC(=O)[C@H](CCCNC(=N)N)NC(=O)[C@H](CO)NC(=O)[C@@H](N)[C@@H](C)O)C(=O)N[C@@H](Cc1ccccc1)C(=O)N[C@@H](Cc1ccc(O)cc1)C(=O)N[C@@H](CCCNC(=N)N)C(=O)N[C@@H](CCCNC(=N)N)C(=O)N[C@@H](CS)C(=O)N[C@H](C(=O)N[C@@H](CS)C(=O)N[C@@H](CO)C(=O)O)C(C)C (H-TSRCIFYRRCVCS-OH)"
quantity_measured = "IC50"
data_value = 128


a = CC(C)[C@H](NC(=O)[C@H](CCCNC(=N)N)NC(=O)[C@H](Cc1ccccc1)NC(=O)[C@H](CS)NC(=O)[C@H](CCCNC(=N)N)NC(=O)[C@H](CO)NC(=O)[C@@H](N)[C@@H](C)O)C(=O)N[C@@H](CS)C(=O)O (H-TSRCFRVC-OH)
b = CC(C)[C@H](NC(=O)[C@H](CO)NC(=O)[C@H](CCCNC(=N)N)NC(=O)[C@H](CS)NC(=O)[C@@H](NC(=O)[C@H](CCCNC(=N)N)NC(=O)[C@@H](N)Cc1ccccc1)[C@@H](C)O)C(=O)N[C@@H](CS)C(=O)O (H-FRTCRSVC-OH)
Task: In the pair a and b , the larger recorded IC50 belongs to which? State the label of the item chosen.
Result: a
(a: 106 µM, b: 73 µM)
